Record form. Attribute: Emax. Fill in for each entry.
# subject of test: F508delCFTR (Homo sapiens, UniProt P13569, DEL508-508)
# Construct: expressed in transfected cells; host or cells: CFBE41o- human lung-derived epithelial cells (CFBE4lo-F508delCFTR-HRP), doxycycline-inducible
# Sequence (P13569 with tags, fused parts or gaps DEL508-508): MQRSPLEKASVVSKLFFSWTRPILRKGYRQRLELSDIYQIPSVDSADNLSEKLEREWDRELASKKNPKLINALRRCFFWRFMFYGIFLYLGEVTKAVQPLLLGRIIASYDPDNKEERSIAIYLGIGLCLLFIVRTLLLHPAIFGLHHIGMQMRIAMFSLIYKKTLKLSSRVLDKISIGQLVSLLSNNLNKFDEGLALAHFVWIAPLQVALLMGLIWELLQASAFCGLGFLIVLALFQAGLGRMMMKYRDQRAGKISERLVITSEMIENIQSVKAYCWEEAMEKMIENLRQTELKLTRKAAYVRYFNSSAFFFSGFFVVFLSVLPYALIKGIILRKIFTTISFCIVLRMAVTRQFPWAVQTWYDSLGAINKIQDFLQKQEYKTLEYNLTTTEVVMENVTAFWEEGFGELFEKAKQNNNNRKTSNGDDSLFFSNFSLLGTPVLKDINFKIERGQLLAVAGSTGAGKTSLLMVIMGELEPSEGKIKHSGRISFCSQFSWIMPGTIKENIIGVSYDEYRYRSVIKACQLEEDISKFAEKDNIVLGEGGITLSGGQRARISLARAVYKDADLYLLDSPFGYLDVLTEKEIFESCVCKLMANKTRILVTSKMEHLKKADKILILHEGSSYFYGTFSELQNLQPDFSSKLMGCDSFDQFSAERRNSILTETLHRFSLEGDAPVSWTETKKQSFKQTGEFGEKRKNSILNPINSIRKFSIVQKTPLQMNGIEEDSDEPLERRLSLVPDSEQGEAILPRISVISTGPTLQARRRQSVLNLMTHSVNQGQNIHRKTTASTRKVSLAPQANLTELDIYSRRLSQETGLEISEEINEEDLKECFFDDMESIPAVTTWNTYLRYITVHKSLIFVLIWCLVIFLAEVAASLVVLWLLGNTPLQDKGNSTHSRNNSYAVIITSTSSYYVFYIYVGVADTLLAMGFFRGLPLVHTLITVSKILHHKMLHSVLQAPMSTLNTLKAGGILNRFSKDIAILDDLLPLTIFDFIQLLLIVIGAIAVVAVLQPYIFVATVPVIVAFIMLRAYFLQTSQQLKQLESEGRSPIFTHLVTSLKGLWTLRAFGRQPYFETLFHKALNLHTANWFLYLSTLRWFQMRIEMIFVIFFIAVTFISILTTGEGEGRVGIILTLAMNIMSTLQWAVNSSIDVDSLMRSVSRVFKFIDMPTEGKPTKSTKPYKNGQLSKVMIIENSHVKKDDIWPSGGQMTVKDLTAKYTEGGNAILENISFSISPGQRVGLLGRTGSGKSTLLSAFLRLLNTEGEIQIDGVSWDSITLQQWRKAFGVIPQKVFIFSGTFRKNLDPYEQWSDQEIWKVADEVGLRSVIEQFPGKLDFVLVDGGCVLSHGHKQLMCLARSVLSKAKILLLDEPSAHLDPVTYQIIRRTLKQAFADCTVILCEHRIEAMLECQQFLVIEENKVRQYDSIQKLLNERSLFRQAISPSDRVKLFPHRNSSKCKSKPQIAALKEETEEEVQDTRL
# assay summary: Cell Surface Expression-Horse Radish Peroxidase (CSE-HRP) Assay;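 note: percent of the 2 µM on-plate positive control corrector response above DMSO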
# Type: cell-based
# assay context: test compound without co-corrector; maximum at any tested concentration, normalized to on-plate positive control; read-out: Maximum % activity (without co-corrector)
# Experimental: Cell Surface Expression-Horse Radish Peroxidase (CSE-HRP) Assay The development was achieved by expressing the F508delCFTR mutation along with a horseradish peroxidase (HRP) in the fourth exofacial loop, and then measuring the HRP activity using luminescence readout from these cells, CFBE4lo-F508delCFTR-HRP, that were incubated overnight with the test corrector compounds, either without or with the co-corrector. […] The raw counts from the experiment were analyzed using Accelrys® Assay Explorer v3.3. […]

Example entries and their recorded answers appear below.
compound | Emax
COc1ncc(C(C)(C)C)cc1CN[C@H]1[C@H](C(C)(C)C)[C@@H](C(=O)O)N(C(=O)C2CCCCC2)[C@H]1c1ccccc1F [II-351] | 100 to 200%
COc1ncc(C(F)(F)F)cc1CN[C@H]1[C@H](C(C)(C)C)[C@@H](C(=O)O)N(C(=O)[C@@H]2CCCC(F)(F)C2)[C@H]1c1cccnc1OC [II-572] | 100 to 200%
COc1ccc(C2(C#N)CC2)cc1CN[C@H]1[C@H](C(C)(C)C)[C@@H](C(=O)O)N(C(=O)C2CCCCC2)[C@H]1c1ccccc1 [II-400] | 100 to 200%
COc1ccc(C(F)(F)F)cc1CN[C@H]1[C@H](C(C)(C)C)[C@@H](C(=O)O)N(C(=O)C2(C)CCCOC2)[C@H]1c1ccccc1N(C)C (mixture of isomers) [III-77] | < 100%

The following compounds each have a reported value; give each one's Emax.
1. COc1ccc(Cl)cc1CN[C@H]1[C@H](C(C)(C)C)[C@@H](C(=O)O)N(C(=O)OC(C)C)[C@H]1c1ccccc1C(C)C [II-567]
2. COc1ccc(C(C)(C)C)cc1CN[C@H]1[C@H](C(C)(C)C)[C@@H](C(=O)O)N(C(=O)C2CC(F)C2)[C@H]1c1ccccc1 (stereo partly drawn) [II-335]

*A*
1. > 200%
2. > 200%
